pIC50 values by entry
test: Inhibition of COM crystal growth in three growth directions, inhibitors alone and in combination pairs; conditions: [121] direction; inhibitor alone; read-out: concentration of the single inhibitor achieving 50% inhibition of crystal growth
As a rule, pIC50 stands for the negative log10 of the concentration, concentration in M.

Observe how each entry below is paired with its result.
| Compound | pIC50 |
| --- | --- |
| O=C([O-])CC(O)(CC(=O)[O-])C(=O)[O-].[K+].[K+].[K+] [KCA, potassium citrate] | 4.06 |
| O=C(O)CC(O)(C(=O)O)C(O)C(=O)O (centres unmarked) [HCA, hydroxycitric acid] | 4.14 |
| O=C(O)c1ccc(O)c(O)c1 [PrA, protocatechuic acid] | 3.50 |
| O=C(O)CC(O)(CC(=O)O)C(=O)O [CA, citric acid] | 4.05 |

Proceed to the following item.
Reported pIC50 for Oc1cccc(O)c1O [PGA, pyrogallol] was 4.75
